- assay-protocol: protein stability index of a GFP-peptide fusion (GPS, HEK-293T) (PSI 1-6); higher = more stable;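 also: 24-mer peptide tiles fused after GFP, lentivirally expressed, FACS-sorted into six equal bins by GFP/DsRed ratio, decoded by Illumina sequencing, PSI is the read-weighted mean bin number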
- settings: treatment: MLN4924 1 uM, 8 h; c terminus: a fixed tail appended
metric: protein stability index

>>> df
                       monomer_sequence                   metric  recorded_number
 0       QKLNVFKNFIGLLQNQNFPYPVLF [NLN]  protein stability index             2.76
 1    FSGRMEVLTDSEGWILIDRCGKHF [KCTD10]  protein stability index             2.77
 2      DDRNTACHHGLVADSLQASMEKDA [DLC1]  protein stability index             5.16
 3     LNEMRDQYEKMAEKNRKDAEDWFF [KRT17]  protein stability index              4.1
 4  AEEPNAAVPDEIPPLEGDEDASRM [HSP90AB1]  protein stability index             5.65
 5      SSDPFYTPEPDTCHELLGHVPLLA [TPH1]  protein stability index             3.31
 6      KFSPFGQWWASVGMDDFLGVYSMP [TLE6]  protein stability index             2.35
 7      LVQVESVNLQVATYSKFQPQSPDF [UFD1]  protein stability index             2.35
 8     YVALQTKGALQKKPLYVAFSFMYI [KCNK9]  protein stability index             2.85
 9      LVRDWSFPYEYSYGLQGGMAFLDK [ATL3]  protein stability index             2.19
10    HQEAEMAQNAVRLHYGLPVVVKLL [CTNNB1]  protein stability index             2.62
11      FRRFAVHGDARATGREMHGKNWSK [TPPP]  protein stability index             3.65
12    MGGTQQQFVEGVRMEEIVEGCTGA [CTNNB1]  protein stability index              5.1
13     SSASSEQGLLGRSPPTRPVPGHRS [SPRY1]  protein stability index              4.8
14    RFCCCVAVIYLGYCFCGWIVLGPY [MCOLN1]  protein stability index             3.28
15     YLIRVDGKGSIKELFPTGKQLEPL [VPS39]  protein stability index             2.21
16   SRRPLDEAVAGAEGREAPALVAAG [DENND6A]  protein stability index             5.19
17     AQQDLAPDPDAWLRALGELLRRDL [FANCE]  protein stability index             3.15
18     THLLMGLASGRIILILEGGYNLTS [HDAC6]  protein stability index             3.02
19    MTSMSAELKMRAIQAEERLDMEKR [LRRC45]  protein stability index              4.9
20    LQRGEALSALDSKANNLSSLSKKY [SEC22B]  protein stability index             4.34
21    MQAAEVFSQKHFPEVVQHEEFILL [KLHL12]  protein stability index             2.44
22      RYCDSILREMLSKKHAAYAWPFYK [BRD3]  protein stability index             2.02
23     RLRPLTLSTPKPLVDFCNKPILLH [GMPPB]  protein stability index             2.46
24    EMAEQLMTLAYDNGINLFDTAEVY [KCNAB2]  protein stability index             2.44
25      TLRPDQQLHIFNTLRSHLIDKGML [CDS2]  protein stability index             2.24
26    AVQRLEGALWGLQAQAVQTEQAVA [SCARA5]  protein stability index             3.01
27     FLFAKLFSHITSARKARKYEIPHF [PHTF1]  protein stability index             2.79
28    VVHQRVHSGEKPYKCSDCGKTFKQ [ZNF232]  protein stability index             3.43
29     ERLKQEIERLTREVEATRRALIDR [DDIT3]  protein stability index             3.56
30      RARDSPEPGAGLGIGDMAFEGDMG [PSD2]  protein stability index             4.91
31     ESDTDGAGGNSSSSAAMQSSCSST [CCDC6]  protein stability index             5.69
32    STELQASQILQNKKHKNSQLDKNS [FAM98B]  protein stability index             5.06
33      VGLVTNQLSHIKAKIRAKIPGTGA [RTN2]  protein stability index              2.9
34      HRRRTICGTPNYLSPEVLNKQGHG [PLK2]  protein stability index             4.17
35    KLTLENFYSNLILQHEERETRQKK [STK38L]  protein stability index             3.29
36     KQKNAYIGTQGPLENTYRDFWLMV [PTPN9]  protein stability index              2.4
37      MNGDSRAAVVTSPPPTTAPHKERY [ADD1]  protein stability index             5.07
38     AEEYEDSSTKPPKSRRKAALSSPR [INTS3]  protein stability index             5.27
39     RDNAELEKLIQERSQQQEPLLCPS [KRT34]  protein stability index             4.87
40    APSNSTSLNSTFGSTNLTGLFFPP [NFE2L1]  protein stability index             3.08
41    SRPELLQPLNFVRFYLPLLIHQHE [GLT8D2]  protein stability index             3.14
42     CTEGPIDLVFVIDGSKSLGEENFE [MATN2]  protein stability index             2.52
43  ERRPRRVEAERPHSLIGVIRETVL [FAM189A2]  protein stability index             3.91
44     PFNKVQSARFWIPGEPNNAGNNEH [CD207]  protein stability index             3.93
45    PEKASELSQVELQAAPGALPVSSP [TRIM55]  protein stability index             5.49
46     SSECHTSGFVGSGGWFCEGSFNGS [KRT36]  protein stability index             3.06
47    ESLEDVAMYISQEEWGHQDPSKRA [ZNF263]  protein stability index             5.03
48     LSNLTHVLYPVPLESYEDIHGTLH [PRAME]  protein stability index             2.69
49     ACGGTRDQLFMQEKARQLLGRLKP [MYBL2]  protein stability index             3.29
50   EDIALNKHRSRRKWCFWNSSPAVA [RHOBTB1]  protein stability index             2.28
51     FTKANFWYQPSFHGVDLSALRGAA [CARM1]  protein stability index             1.92
52   AINRDTAFPGASHESSGNPPLRVI [RHOBTB3]  protein stability index             3.47
